EXPERIMENTAL TARGET: human CDK9/CyclinT kinase complex (Homo sapiens, UniProt P50750)
Sequence (P50750 whole entry): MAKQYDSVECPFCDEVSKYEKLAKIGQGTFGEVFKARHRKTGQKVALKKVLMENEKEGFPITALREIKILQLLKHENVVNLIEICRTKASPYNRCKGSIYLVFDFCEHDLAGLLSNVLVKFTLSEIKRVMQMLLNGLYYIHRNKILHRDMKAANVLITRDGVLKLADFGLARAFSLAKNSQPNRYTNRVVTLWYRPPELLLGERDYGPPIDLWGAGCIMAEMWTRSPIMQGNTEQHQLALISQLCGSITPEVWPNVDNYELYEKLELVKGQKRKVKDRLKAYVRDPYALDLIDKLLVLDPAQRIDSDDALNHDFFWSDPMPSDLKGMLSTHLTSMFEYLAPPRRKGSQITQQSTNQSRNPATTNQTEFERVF
Sequence (O60563 whole entry partner): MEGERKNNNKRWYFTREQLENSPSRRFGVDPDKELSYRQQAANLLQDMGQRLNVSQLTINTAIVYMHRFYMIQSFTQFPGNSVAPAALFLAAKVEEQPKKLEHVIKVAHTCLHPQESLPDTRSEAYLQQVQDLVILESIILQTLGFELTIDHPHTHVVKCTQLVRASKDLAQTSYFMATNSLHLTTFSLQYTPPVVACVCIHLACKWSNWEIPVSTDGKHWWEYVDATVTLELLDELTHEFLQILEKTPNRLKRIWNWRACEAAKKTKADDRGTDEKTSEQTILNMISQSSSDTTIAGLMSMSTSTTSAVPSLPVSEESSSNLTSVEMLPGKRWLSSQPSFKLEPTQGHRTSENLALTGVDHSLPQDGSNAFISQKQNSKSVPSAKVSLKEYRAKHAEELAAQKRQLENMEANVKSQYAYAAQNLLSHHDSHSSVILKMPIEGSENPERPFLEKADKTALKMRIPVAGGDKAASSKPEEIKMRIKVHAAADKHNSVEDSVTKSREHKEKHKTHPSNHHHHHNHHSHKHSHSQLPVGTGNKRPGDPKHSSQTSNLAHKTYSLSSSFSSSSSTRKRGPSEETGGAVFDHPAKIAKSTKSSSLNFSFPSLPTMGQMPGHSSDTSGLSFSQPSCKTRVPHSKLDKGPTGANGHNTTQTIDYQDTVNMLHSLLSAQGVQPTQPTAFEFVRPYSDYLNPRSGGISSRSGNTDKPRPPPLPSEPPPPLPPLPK
MEASUREMENT DESCRIPTION: In vitro CDK9/CyclinT assay (IMAP fluorescence polarization kinase assay)
CONDITION DETAILS: 5 nM CDK9/CyclinT, 400 nM TAMRA-Rbtide, 12 μM ATP, 1 hour at room temperature; read-out: CDK9 inhibitory range
pIC50: −log10 of the molar value.
pIC50 values by entry

Sample records with pIC50:
TEST SMILES	EXPERIMENTAL TARGET	pIC50
CS(=O)(=O)NCc1ccc(Nc2cc(-c3cccnc3)ncn2)cc1	human CDK9/CyclinT kinase complex (Homo sapiens, UniProt P50750)	> 5.00
CS(=O)(=O)NCc1cccc(Nc2cc(-c3cccc4c3OCO4)ncn2)c1	human CDK9/CyclinT kinase complex (Homo sapiens, UniProt P50750)	> 6.00
CCCOc1ccccc1-c1cc(Nc2cccc(CNS(C)(=O)=O)c2)ncn1	human CDK9/CyclinT kinase complex (Homo sapiens, UniProt P50750)	> 6.00
C=C(c1ccccc1)c1cc(Nc2cccc(CNS(C)(=O)=O)c2)ncn1	human CDK9/CyclinT kinase complex (Homo sapiens, UniProt P50750)	> 5.00
CS(=O)(=O)NCc1ccc(Nc2cc(-c3ccccc3OCc3cccc(F)c3)ncn2)cc1	human CDK9/CyclinT kinase complex (Homo sapiens, UniProt P50750)	> 6.00

Summary for this molecule, `CC(C)Oc1ccccc1-c1cc(Nc2cccc(Cn3cnc4ccccc43)c2)ncn1` : pIC50 is > 7.00

Summary for this molecule, `COc1cc(F)ccc1-c1cc(Nc2cccc(Cn3c(CN4CCOCC4)nc4ccccc43)c2)ncn1` : pIC50 is > 5.00

Summary for this molecule, `COc1ccccc1-c1cc(Nc2cccc(CNS(=O)(=O)c3ccc(F)cc3)c2)ncn1` : pIC50 is > 6.00

The origin of these recorded values is patent US9040529B2.
